Reference source for all entries: patent US20230126400A1

Catalogue of fold increase in MFI readings, one per entry.
# Tested System: T1, cynomolgus (cyno) MS4A4A (cynomolgus)
# T1 construct: also called cy4A; Cyno 4A
# Experimental Protocol: FACS, 300.19 cells, supernatant

Consider the following illustrative entries.
[[record]]
binder = "anti-MS4A4A antibody 4A-205 (murine) (antibody, V domains shown, murine hybridoma antibody) VH: EVQLVESGGDLVKPGGSLKLSCAASGFTFSHYGMSWVRQTPDKRLDWVATIGRDGIHTDYRDSVKGRFTISRDNAKNTLYLQMGSLKSEDSAIFYCARHLYYGLYYSMDYWGQGTSVTVSS VL: ENVLTQSPAIMSASPGEKVTMTCSASSSVSFMYWYQQKSSTSPKLWIYDTSKLASGVPGRFSGSGSGNSYSLTISSMEAEDVATYYCFQGSGYPLTFGSGTKLEIK"
recorded_value = "> 2 fold"

[[record]]
binder = "anti-MS4A4A antibody 4A-225 (antibody, V domains shown, murine hybridoma antibody) VH: QVQLKESGPGLVAPSQSLSITCTVSGFSLTSFGVNWFRQPPGKGLEWLGIIWGDGSTNFHSALMSRLSISKDNSKSQVFLKLNRLQTDDTATYYCAKRDYDGRDDVMGYWGQGTSVTVSS VL: DIVMTQSQKIMSTSVGDRVSITCKASQTVRTAVAWYQQKPGQSPKALIYLASNRHTGVPDRFTGSGSGTDFTLTISNVQSEDLADYFCLQHWSYPLTFGAGTKLEMK"
recorded_value = "> 2 fold"


Query block: For anti-MS4A4A antibody 4A-209 (murine) (antibody, V domains shown, murine hybridoma antibody) VH: EVKLLESGGGLVQPGGSLKLSCAASGFDFSRYWMSWVRQAPGKGLEWIGEIKSDSSTINYTPSLKDKFIISRDNAKNTLYLQMSKVRSEDTALYYCARRGFYDYDAWFAYWGQGTLVTVSS VL: QIVLTQSPTLMSASPGEKVTMTCSASSSVTYMYWYQQKPRSSPKPWIYLTSNRASGVPTRFSGSGSGTSHSLTISYMEAEDAATYYCQQWSSNPPTFGAGTKLELR , what is its reported fold increase in MFI?
Result block: > 2 fold
